# targetOfAssay: UniProtKB P10635
# Sequence (P10635 whole entry): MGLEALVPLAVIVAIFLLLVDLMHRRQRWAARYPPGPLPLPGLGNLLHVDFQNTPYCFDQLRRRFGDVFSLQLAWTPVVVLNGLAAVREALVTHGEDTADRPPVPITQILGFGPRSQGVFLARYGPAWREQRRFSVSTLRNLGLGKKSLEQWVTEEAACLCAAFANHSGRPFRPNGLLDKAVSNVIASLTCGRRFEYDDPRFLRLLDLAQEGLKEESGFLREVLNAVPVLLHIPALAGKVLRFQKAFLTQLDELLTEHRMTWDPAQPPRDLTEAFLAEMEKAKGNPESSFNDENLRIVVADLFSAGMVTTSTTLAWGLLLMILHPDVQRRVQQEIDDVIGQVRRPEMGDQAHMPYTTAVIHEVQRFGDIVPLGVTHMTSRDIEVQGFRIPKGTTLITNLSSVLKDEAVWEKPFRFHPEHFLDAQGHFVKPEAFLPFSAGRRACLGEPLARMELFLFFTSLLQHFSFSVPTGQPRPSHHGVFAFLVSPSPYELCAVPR
pIC50: −log10 of the molar value.
readout: pIC50

# pIC50 measured on UniProtKB P10635 for item COc1ccc([C@H](C)NC(=O)[C@@H]2C[C@@H](O)CN2C(=O)CNC(=O)c2ccc3cc(F)ccc3n2)c(Cl)c1 = < 4.60

###

# targetOfAssay: CYP450 3A4 (Homo sapiens, UniProt P08684)
# Construct: Cyprotex (contract data)
# Sequence (P08684 whole entry): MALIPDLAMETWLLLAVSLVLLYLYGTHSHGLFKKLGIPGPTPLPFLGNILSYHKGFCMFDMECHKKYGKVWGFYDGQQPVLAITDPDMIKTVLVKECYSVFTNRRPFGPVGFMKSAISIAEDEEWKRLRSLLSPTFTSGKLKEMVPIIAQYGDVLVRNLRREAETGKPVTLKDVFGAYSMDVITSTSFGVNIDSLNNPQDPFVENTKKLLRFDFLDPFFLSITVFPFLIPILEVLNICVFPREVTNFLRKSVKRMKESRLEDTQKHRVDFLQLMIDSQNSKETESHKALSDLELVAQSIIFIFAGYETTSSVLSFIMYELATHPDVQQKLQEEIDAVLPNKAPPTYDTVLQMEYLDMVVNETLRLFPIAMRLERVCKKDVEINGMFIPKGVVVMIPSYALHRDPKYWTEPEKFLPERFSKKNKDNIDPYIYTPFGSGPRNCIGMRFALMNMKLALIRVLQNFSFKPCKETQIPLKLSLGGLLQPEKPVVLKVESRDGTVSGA
# assayName: CYP450 inhibition
# Assay type: in vitro ADME
# particulars: 3A4 midazolam site
readout: IC50

Data point: COc1ccc([C@H](C)NC(=O)[C@@H]2C[C@@H](O)CN2C(=O)CNC(=O)c2ccc3cc(F)ccc3n2)c(Cl)c1 ; IC50 = > 25 µM

Data provenance: paper PMC8219027
